# System: Escherichia coli TOP10
# assay name: shrunken log2 fold change of peptide-encoding DNA abundance (4.5 h post-induction vs induction); higher = less antimicrobial activity (less host growth inhibition)
# run conditions: time post-induction: 4.5 h; library: site-saturation at positions 5, 18, 19, 20
Entry flag: Condition met if shrunken log2 fold change reaches -0.1; Condition not met if it does not.

## Task Identify whether the reported shrunken log2 fold change of the following sequence is -0.1 or greater: "RRIRCRPPRLPRPRPRPTEIPRP"
## Result Condition not met

## Task Identify whether the reported shrunken log2 fold change of the following sequence is -0.1 or greater: "RRIRNRPPRLPRPRPRPLTAPRP"
## Result Condition not met

## Task Identify whether the reported shrunken log2 fold change of the following sequence is -0.1 or greater: "RRIRIRPPRLPRPRPRPYTLPRP"
## Result Condition not met

## Task Identify whether the reported shrunken log2 fold change of the following sequence is -0.1 or greater: "RRIRCRPPRLPRPRPRPQMYPRP"
## Result Condition not met

## Task Identify whether the reported shrunken log2 fold change of the following sequence is -0.1 or greater: "RRIRDRPPRLPRPRPRPANRPRP"
## Result Condition met

## Task Identify whether the reported shrunken log2 fold change of the following sequence is -0.1 or greater: "RRIRMRPPRLPRPRPRPVSEPRP"
## Result Condition not met

## Task Identify whether the reported shrunken log2 fold change of the following sequence is -0.1 or greater: "RRIRNRPPRLPRPRPRPVMIPRP"
## Result Condition not met

## Task Identify whether the reported shrunken log2 fold change of the following sequence is -0.1 or greater: "RRIRMRPPRLPRPRPRPEVGPRP"
## Result Condition met

* * *

# Tested on: Escherichia coli TOP10
# assay name: shrunken log2 fold change of peptide-encoding DNA abundance (4.5 h post-induction vs induction); higher = less antimicrobial activity (less host growth inhibition)
# run conditions: time post-induction: 4.5 h; library: site-saturation at positions 5, 18, 19, 20
Entry flag: 1 if shrunken log2 fold change reaches -0.009; -1 if it does not.

## Task Identify whether the reported shrunken log2 fold change of the following sequence is -0.009 or greater: "RRIRIRPPRLPRPRPRPRICPRP"
## Result -1

## Task Identify whether the reported shrunken log2 fold change of the following sequence is -0.009 or greater: "RRIRARPPRLPRPRPRPDSRPRP"
## Result 1

## Task Identify whether the reported shrunken log2 fold change of the following sequence is -0.009 or greater: "RRIRWRPPRLPRPRPRPLGHPRP"
## Result 1

## Task Identify whether the reported shrunken log2 fold change of the following sequence is -0.009 or greater: "RRIRHRPPRLPRPRPRPQQAPRP"
## Result 1

## Task Identify whether the reported shrunken log2 fold change of the following sequence is -0.009 or greater: "RRIRCRPPRLPRPRPRPKTFPRP"
## Result -1

## Task Identify whether the reported shrunken log2 fold change of the following sequence is -0.009 or greater: "RRIRFRPPRLPRPRPRPIQEPRP"
## Result -1

## Task Identify whether the reported shrunken log2 fold change of the following sequence is -0.009 or greater: "RRIRWRPPRLPRPRPRPVPRPRP"
## Result 1

## Task Identify whether the reported shrunken log2 fold change of the following sequence is -0.009 or greater: "RRIRRRPPRLPRPRPRPLGVPRP"
## Result 1

## Task Identify whether the reported shrunken log2 fold change of the following sequence is -0.009 or greater: "RRIRFRPPRLPRPRPRPRDRPRP"
## Result 1

## Task Identify whether the reported shrunken log2 fold change of the following sequence is -0.009 or greater: "RRIRFRPPRLPRPRPRPGTAPRP"
## Result 1

## Task Identify whether the reported shrunken log2 fold change of the following sequence is -0.009 or greater: "RRIRMRPPRLPRPRPRPMQPPRP"
## Result 1

## Task Identify whether the reported shrunken log2 fold change of the following sequence is -0.009 or greater: "RRIRNRPPRLPRPRPRPQCRPRP"
## Result -1

## Task Identify whether the reported shrunken log2 fold change of the following sequence is -0.009 or greater: "RRIRSRPPRLPRPRPRPCQWPRP"
## Result -1

## Task Identify whether the reported shrunken log2 fold change of the following sequence is -0.009 or greater: "RRIRARPPRLPRPRPRPEDGPRP"
## Result 1

* * *

# System: Escherichia coli TOP10
# assay name: shrunken log2 fold change of peptide-encoding DNA abundance (4.5 h post-induction vs induction); higher = less antimicrobial activity (less host growth inhibition)
# run conditions: time post-induction: 4.5 h; library: site-saturation at positions 5, 18, 19, 20
Entry flag: true if shrunken log2 fold change reaches 0.09; false if it does not.

## Task Identify whether the reported shrunken log2 fold change of the following sequence is 0.09 or greater: "RRIRERPPRLPRPRPRPAAHPRP"
## Result false

## Task Identify whether the reported shrunken log2 fold change of the following sequence is 0.09 or greater: "RRIRVRPPRLPRPRPRPPYQPRP"
## Result false

## Task Identify whether the reported shrunken log2 fold change of the following sequence is 0.09 or greater: "RRIRGRPPRLPRPRPRPMRHPRP"
## Result true

## Task Identify whether the reported shrunken log2 fold change of the following sequence is 0.09 or greater: "RRIRPRPPRLPRPRPRPDYTPRP"
## Result false

## Task Identify whether the reported shrunken log2 fold change of the following sequence is 0.09 or greater: "RRIRLRPPRLPRPRPRPFIDPRP"
## Result false

## Task Identify whether the reported shrunken log2 fold change of the following sequence is 0.09 or greater: "RRIRPRPPRLPRPRPRPRWCPRP"
## Result true

## Task Identify whether the reported shrunken log2 fold change of the following sequence is 0.09 or greater: "RRIRKRPPRLPRPRPRPMDQPRP"
## Result true

## Task Identify whether the reported shrunken log2 fold change of the following sequence is 0.09 or greater: "RRIRMRPPRLPRPRPRPPVYPRP"
## Result true

## Task Identify whether the reported shrunken log2 fold change of the following sequence is 0.09 or greater: "RRIRERPPRLPRPRPRPGCYPRP"
## Result false

## Task Identify whether the reported shrunken log2 fold change of the following sequence is 0.09 or greater: "RRIRCRPPRLPRPRPRPYTVPRP"
## Result false

## Task Identify whether the reported shrunken log2 fold change of the following sequence is 0.09 or greater: "RRIRDRPPRLPRPRPRPDGCPRP"
## Result true

## Task Identify whether the reported shrunken log2 fold change of the following sequence is 0.09 or greater: "RRIRGRPPRLPRPRPRPRPTPRP"
## Result true

## Task Identify whether the reported shrunken log2 fold change of the following sequence is 0.09 or greater: "RRIRQRPPRLPRPRPRPYGMPRP"
## Result false

## Task Identify whether the reported shrunken log2 fold change of the following sequence is 0.09 or greater: "RRIRPRPPRLPRPRPRPNQHPRP"
## Result false

## Task Identify whether the reported shrunken log2 fold change of the following sequence is 0.09 or greater: "RRIRERPPRLPRPRPRPHLTPRP"
## Result false

* * *

# Tested on: Escherichia coli TOP10;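 further: peptides expressed intracellularly from a pBAD plasmid library in pooled LB shake-flask culture, induced with 0.3% L-arabinose, DNA abundance read by NGS, three biological replicates, DESeq2 with apeglm shrinkage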
# assay name: shrunken log2 fold change of peptide-encoding DNA abundance (4.5 h post-induction vs induction); higher = less antimicrobial activity (less host growth inhibition)
# run conditions: time post-induction: 4.5 h; library: site-saturation at positions 5, 18, 19, 20
Record form. Attribute: shrunken log2 fold change. Fill in for each entry.
Write no unit; give the number alone.

## Task Supply recorded shrunken log2 fold change for "RRIRVRPPRLPRPRPRPYECPRP" here.
## Result -1.34

## Task Supply recorded shrunken log2 fold change for "RRIRNRPPRLPRPRPRPIVQPRP" here.
## Result -0.236

## Task Supply recorded shrunken log2 fold change for "RRIRQRPPRLPRPRPRPETPPRP" here.
## Result 0.495

## Task Supply recorded shrunken log2 fold change for "RRIRIRPPRLPRPRPRPMFCPRP" here.
## Result -0.345

## Task Supply recorded shrunken log2 fold change for "RRIRMRPPRLPRPRPRPDFYPRP" here.
## Result 0.06

## Task Supply recorded shrunken log2 fold change for "RRIRVRPPRLPRPRPRPFWGPRP" here.
## Result -0.0605

## Task Supply recorded shrunken log2 fold change for "RRIRMRPPRLPRPRPRPWIRPRP" here.
## Result -0.167

## Task Supply recorded shrunken log2 fold change for "RRIRTRPPRLPRPRPRPTFVPRP" here.
## Result -0.262

## Task Supply recorded shrunken log2 fold change for "RRIRCRPPRLPRPRPRPKQVPRP" here.
## Result 0.44

## Task Supply recorded shrunken log2 fold change for "RRIRLRPPRLPRPRPRPNVLPRP" here.
## Result -0.304

## Task Supply recorded shrunken log2 fold change for "RRIRQRPPRLPRPRPRPCMLPRP" here.
## Result -0.239

## Task Supply recorded shrunken log2 fold change for "RRIRWRPPRLPRPRPRPMMRPRP" here.
## Result 1.08

## Task Supply recorded shrunken log2 fold change for "RRIRYRPPRLPRPRPRPNAKPRP" here.
## Result -0.0394

## Task Supply recorded shrunken log2 fold change for "RRIRARPPRLPRPRPRPPHVPRP" here.
## Result 0.805

## Task Supply recorded shrunken log2 fold change for "RRIRFRPPRLPRPRPRPFKQPRP" here.
## Result -0.242
